READOUT: melting point

Problem: Entry COC[C@H]1COCCN1CCN1CCN(C(=O)c2cc(C(F)(F)F)cc(C(F)(F)F)c2)[C@H](Cc2ccc(C)c(C)c2)C1.Cl.Cl : reported melting point = ?
Result: 90 to 100 °C

Problem: What value of melting point has been recorded for this entry: Cl.Cl.O=C(c1cc(Cl)cc(Cl)c1)N1CCN(CC#CCN2CCSCC2)C[C@H]1Cc1c[nH]c2ccccc12
Result: 175 °C (dec.)

Problem: Endpoint output: melting point of Cl.Cl.O=C(c1cc(C(F)(F)F)cc(C(F)(F)F)c1)N1CCN(C/C=C\c2cccnc2)C[C@H]1Cc1c[nH]c2ccccc12 . Value?
Result: 165 to 177 °C

Problem: Which melting point value belongs to C[C@H]1COC[C@H](C)N1CCN1CCN(C(=O)c2cc(C(F)(F)F)cc(C(F)(F)F)c2)[C@H](Cc2c[nH]c3ccccc23)C1.Cl.Cl ?
Result: 170 to 180 °C

Problem: I am curious: what melting point value has been reported for CC1(C)COCCN1CC#CCN1CCN(C(=O)c2cc(C(F)(F)F)cc(C(F)(F)F)c2)C(Cc2cc3ccccc3[nH]2)C1.Cl.Cl (stereo not drawn) ?
Result: 185 °C

Problem: Look up melting point for this molecule: Cl.Cl.O=C(c1cc(C(F)(F)F)cc(C(F)(F)F)c1)N1CCN(CC#Cc2ccccn2)C[C@H]1Cc1c[nH]c2ccccc12
Result: 160 to 166 °C

Problem: Can you share its melting point? I mean this molecule: COC[C@@H]1COCCN1CCN1CCN(C(=O)c2cc(C(F)(F)F)cc(C(F)(F)F)c2)[C@H](Cc2ccc(C)c(C)c2)C1.Cl.Cl
Result: 90 to 100 °C

Problem: Record request: melting point value, item CNc1cc(C(=O)N2CCN(CC#CCN3CCOCC3(C)C)C[C@H]2Cc2ccc(C)c(C)c2)cc(C(F)(F)F)c1.Cl.Cl
Result: 195 to 205 °C

Problem: If you can, please state the reported melting point value of Cl.Cl.O=C(c1cc(C(F)(F)F)cc(C(F)(F)F)c1)N1CCN(CCCc2cccnc2)C[C@H]1Cc1ccc2ccccc2c1 .
Result: 138 to 148 °C

Problem: // lookup melting point for Cc1ccc(C[C@@H]2CN(CC#C[C@@H]3COCCN3)CCN2C(=O)c2cc(C(F)(F)F)cc(C(F)(F)F)c2)cc1C.Cl.Cl
Result: 190 to 191 °C

Problem: Give its melting point value. Item: Cl.Cl.O=C(c1cc(Cl)cc(Cl)c1)N1CCN(CC#CCN2CCOCC2)C[C@H]1Cc1c[nH]c2ccccc12
Result: 165 °C (dec.)

Problem: So what does the record say about melting point for Cc1ccc(C[C@@H]2CN(C/C=C/[C@@H]3COCCN3)CCN2C(=O)c2cc(C(F)(F)F)cc(C(F)(F)F)c2)cc1C.Cl.Cl ?
Result: 225 to 232 °C

Problem: What value of melting point has been recorded for this entry: COC[C@H]1COCCN1CCN1CCN(C(=O)c2cc(C(F)(F)F)cc(C(F)(F)F)c2)[C@H](Cc2c[nH]c3ccccc23)C1.Cl.Cl
Result: 175 to 185 °C

Problem: # lookup: melting point of Cc1ccc(C[C@@H]2CN(CC#CCN3CCOCC3(C)C)CCN2C(=O)c2cc([N+](=O)[O-])cc(C(F)(F)F)c2)cc1C.Cl.Cl
Result: 157 to 200 °C

Problem: # lookup: melting point of Cc1ccc(C[C@@H]2CN(CC#CCN3CCOC[C@H]3C(=O)N(C)C)CCN2C(=O)c2cc(C(F)(F)F)cc(C(F)(F)F)c2)cc1C.Cl.Cl
Result: 150 to 160 °C

Problem: What value of melting point has been reported for the following molecule? COCC1CN(CCCN2CCN(C(=O)c3cc(C(F)(F)F)cc(C(F)(F)F)c3)[C@H](Cc3ccc(C)c(C)c3)C2)CCO1.Cl (stereo partly drawn)
Result: 145 to 155 °C

Problem: Sample Cl.Cl.O=C(c1cc(C(F)(F)F)cc(C(F)(F)F)c1)N1CCN(CC#Cc2cccnc2)C[C@H]1Cc1c[nH]c2ccccc12 — what was its melting point?
Result: 180 to 190 °C

Problem: Name the recorded melting point for Cl.Cl.Nc1ccc(C#CCN2CCN(C(=O)c3cc(C(F)(F)F)cc(C(F)(F)F)c3)[C@H](Cc3c[nH]c4ccccc34)C2)cn1 .
Result: 190 to 195 °C

Problem: Would you kindly share the measured melting point for COC[C@@H]1CN(CC#CCN2CCN(C(=O)c3cc(C(F)(F)F)cc(C(F)(F)F)c3)[C@H](Cc3ccc(C)c(C)c3)C2)CCO1.Cl.Cl ?
Result: 85 to 95 °C

Problem: Consider the molecule shown here: Cc1ccc(C[C@@H]2CN(C/C=C\c3cccnc3)CCN2C(=O)c2cc(C(F)(F)F)cc(C(F)(F)F)c2)cc1C.Cl.Cl What is its recorded melting point?
Result: 170 to 174 °C

Problem: If you can, please state the reported melting point value of Cc1ccc(C[C@@H]2CN(CCCc3ccccn3)CCN2C(=O)c2cc(C(F)(F)F)cc(C(F)(F)F)c2)cc1C.Cl.Cl .
Result: 120 to 130 °C

Problem: // query melting point value for entry Cl.Cl.O=C(c1cc(C(F)(F)F)cc(C(F)(F)F)c1)N1CCN(C/C=C/c2cccnc2)C[C@H]1Cc1c[nH]c2ccccc12
Result: 195 to 203 °C

Problem: Need melting point, item Cc1ccc(C[C@@H]2CN(C/C=C/c3cccnc3)CCN2C(=O)c2cc(C(F)(F)F)cc(C(F)(F)F)c2)cc1C.Cl.Cl
Result: 170 to 174 °C

Problem: I have this molecule here, Cc1ccc(C[C@@H]2CN(CC#CCN3CCOC[C@@H]3CO)CCN2C(=O)c2cc(C(F)(F)F)cc(C(F)(F)F)c2)cc1C.Cl.Cl , and I need its recorded melting point.
Result: 130 to 150 °C

Problem: // melting point lookup, key: Cc1ccc(C[C@@H]2CN(CCCNN3CCOCC3)CCN2C(=O)c2cc(Cl)cc(Cl)c2)cc1C.Cl.Cl
Result: 71 °C (dec.)

Problem: Entry COc1ccncc1C#CCN1CCN(C(=O)c2cc(C(F)(F)F)cc(C(F)(F)F)c2)[C@H](Cc2c[nH]c3ccccc23)C1.Cl.Cl : reported melting point = ?
Result: 162 to 167 °C

Problem: Please give the measured melting point for this molecule: Cc1ccc(C[C@@H]2CN(CC#CCN3[C@@H](C)COC[C@@H]3C)CCN2C(=O)c2cc(C(F)(F)F)cc(C(F)(F)F)c2)cc1C.Cl.Cl
Result: 160 to 165 °C

* * *

I'd be grateful if you could share measured inhibition at 1 mg/kg for these entries.
TARGET_ENTITY: h-NK1 receptors (Homo sapiens, UniProt P25103)
Construct: expressed in transfected cells; host or cells: CHO cells (permanent expression), crude cell membranes
Sequence (P25103 whole entry): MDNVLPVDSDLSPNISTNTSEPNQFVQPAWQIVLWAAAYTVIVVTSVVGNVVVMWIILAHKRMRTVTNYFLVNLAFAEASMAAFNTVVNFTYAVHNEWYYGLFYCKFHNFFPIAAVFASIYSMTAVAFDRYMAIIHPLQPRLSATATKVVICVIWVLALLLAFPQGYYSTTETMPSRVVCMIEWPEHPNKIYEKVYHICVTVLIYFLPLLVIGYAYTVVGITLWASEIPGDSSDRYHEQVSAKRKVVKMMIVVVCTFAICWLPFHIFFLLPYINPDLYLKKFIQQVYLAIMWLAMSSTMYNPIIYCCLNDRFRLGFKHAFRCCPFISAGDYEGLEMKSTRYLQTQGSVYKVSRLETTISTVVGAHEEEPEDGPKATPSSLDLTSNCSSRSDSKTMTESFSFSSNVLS
TEST: Evaluation of NK1 antagonist transport efficiency to the central nervous system using a h-NK1 receptor binding assay (brain extract after i.v. dosing of rats)
CONDITIONS: 5 min; compound extracted from brain of male SD rats 5 min after i.v. injection at the dose of 1 mg/kg; CHO cell membranes expressing h-NK1; read-out: inhibition rate of 125I-BH-Substance P binding to h-NK1 receptors
Where a name gives a salt, the structure may show the parent alone.

Problem: Given the molecule CCOC[C@H]1COCCN1CCN1CCN(C(=O)c2cc(C(F)(F)F)cc(C(F)(F)F)c2)[C@H](Cc2ccc(C)c(C)c2)C1.Cl.Cl [81-(3), dihydrochloride] , what is its reported inhibition at 1 mg/kg?
Result: > 80%

Problem: Consider the molecule shown here: CC[C@@H]1COCCN1CCN1CCN(C(=O)c2cc(C(F)(F)F)cc(C(F)(F)F)c2)[C@H](Cc2c[nH]c3ccccc23)C1 [81-(10), dihydrochloride] What is its recorded inhibition at 1 mg/kg?
Result: > 80%

Problem: Param item = COC[C@H]1COCCN1CCCN1CCN(C(=O)c2cc(C(F)(F)F)cc(C(F)(F)F)c2)[C@H](Cc2ccc(C)c(C)c2)C1.Cl.Cl [80-(6), dihydrochloride] ; retrieve measured inhibition at 1 mg/kg.
Result: > 80%

Problem: Entry under review: COC[C@H]1CN(CC#CCN2CCN(C(=O)c3cc(C(F)(F)F)cc(C(F)(F)F)c3)[C@H](Cc3ccc(C)c(C)c3)C2)CCO1.Cl.Cl [71-(6), dihydrochloride] . Reported inhibition at 1 mg/kg?
Result: > 80%

Problem: Any idea what inhibition at 1 mg/kg was measured for O=C(c1cc(C(F)(F)F)cc(C(F)(F)F)c1)N1CCN(CC#CCNCc2cccnc2)C[C@H]1Cc1ccc2ccccc2c1 [Example 30, trihydrochloride] ?
Result: > 80%

Problem: Could you tell me which inhibition at 1 mg/kg is on file for CC[C@@H]1COCCN1CCN1CCN(C(=O)c2cc(C(F)(F)F)cc(C(F)(F)F)c2)[C@H](Cc2ccc(C)c(C)c2)C1 [80-(1), dihydrochloride] ?
Result: > 80%
